- subject_of_test: T1, human tissue factor pathway inhibitor (TFPI) (human, UniProt P10646 29-304, limits assumed)
- T1 construct: bought; also called hTFPI; human TFPI
- T1 sequence (looked up): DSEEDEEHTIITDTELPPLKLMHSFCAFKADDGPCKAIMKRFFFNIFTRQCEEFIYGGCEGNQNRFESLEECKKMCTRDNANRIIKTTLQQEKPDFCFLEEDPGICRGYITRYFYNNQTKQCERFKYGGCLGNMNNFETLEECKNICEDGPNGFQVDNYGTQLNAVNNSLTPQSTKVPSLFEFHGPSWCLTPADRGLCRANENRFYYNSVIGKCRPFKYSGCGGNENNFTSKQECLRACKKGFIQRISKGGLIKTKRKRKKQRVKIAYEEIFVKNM
- protocol_details: SPR, TFPI immobilized
Quick reference: kon of the listed items.
property_measured: kon (M⁻¹ s⁻¹)

>  <binder>
4B7 wild-type Fab (Fab, V domains shown, Fab with HA (or c-myc) and 6xHis tag at the C-terminus of the heavy chain; also called 4B7wt; parental 4B7) VH: QVQLQQSGPGLVKPSQTLSLTCAISGDSVSSNSAAWSWIRQSPGRGLEWLGIIYKRSKWYNDYAVSVKSRITINPDTSKNQFSLQLNSVTPEDTAVYYCARWHSDKHWGFDYWGQGTLVTVSS VL: DIVMTQSPLSLPVTPGEPASISCRSSQSLVFSDGNTYLNWYLQKPGQSPQLLIYKGSNRASGVPDRFSGSGSGTDFTLKISRVEAEDVGVYYCQQYDSYPLTFGQGTKVEIKR

>  <property_measured>
kon

>  <unit_symbol>
M⁻¹ s⁻¹

>  <reported_result>
756000

$$$$
>  <binder>
2A8 HC_S55R (Fab, V domains shown, also called 2A8-8) VH: QVQLVESGGGLVQPGGSLRLSCAASGFTFRSYGMSWVRQAPGKGLEWVSSIRGSRSSTYYADSVKGRFTISRDNSKNTLYLQMNSLRAEDTAVYYCARKYRYWFDYWGQGTLVTVSS VL: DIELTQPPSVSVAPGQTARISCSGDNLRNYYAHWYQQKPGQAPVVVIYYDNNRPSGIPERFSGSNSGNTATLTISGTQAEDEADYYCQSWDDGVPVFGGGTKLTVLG

>  <property_measured>
kon

>  <unit_symbol>
M⁻¹ s⁻¹

>  <reported_result>
4.3e+06

$$$$
>  <binder>
2A8 wild-type Fab (Fab, V domains shown, Fab with c-myc (or HA, or none) and 6xHis tag at the C-terminus of the heavy chain; also called 2A8wt; 2A8 wt) VH: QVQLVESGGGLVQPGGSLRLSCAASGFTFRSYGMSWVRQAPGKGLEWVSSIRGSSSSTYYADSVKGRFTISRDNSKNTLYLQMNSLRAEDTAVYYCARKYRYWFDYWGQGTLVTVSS VL: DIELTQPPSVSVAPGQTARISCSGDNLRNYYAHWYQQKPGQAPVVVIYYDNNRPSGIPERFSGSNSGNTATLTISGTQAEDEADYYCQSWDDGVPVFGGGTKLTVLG

>  <property_measured>
kon

>  <unit_symbol>
M⁻¹ s⁻¹

>  <reported_result>
3.13e+06

$$$$
>  <binder>
2A8 HC_K99V (Fab, V domains shown, also called 2A8-10) VH: QVQLVESGGGLVQPGGSLRLSCAASGFTFRSYGMSWVRQAPGKGLEWVSSIRGSSSSTYYADSVKGRFTISRDNSKNTLYLQMNSLRAEDTAVYYCARVYRYWFDYWGQGTLVTVSS VL: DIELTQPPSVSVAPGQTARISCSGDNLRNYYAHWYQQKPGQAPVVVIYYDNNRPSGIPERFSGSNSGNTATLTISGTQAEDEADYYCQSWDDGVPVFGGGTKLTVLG

>  <property_measured>
kon

>  <unit_symbol>
M⁻¹ s⁻¹

>  <reported_result>
2.55e+06

$$$$
>  <binder>
2A8 HC_I51D (Fab, V domains shown, also called 2A8-12) VH: QVQLVESGGGLVQPGGSLRLSCAASGFTFRSYGMSWVRQAPGKGLEWVSSDRGSSSSTYYADSVKGRFTISRDNSKNTLYLQMNSLRAEDTAVYYCARKYRYWFDYWGQGTLVTVSS VL: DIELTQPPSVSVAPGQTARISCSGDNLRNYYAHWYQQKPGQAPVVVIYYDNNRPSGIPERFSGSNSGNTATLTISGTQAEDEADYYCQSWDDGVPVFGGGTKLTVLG

>  <property_measured>
kon

>  <unit_symbol>
M⁻¹ s⁻¹

>  <reported_result>
3.61e+06

$$$$
>  <binder>
2A8 HC_S31V (Fab, V domains shown, also called 2A8-3) VH: QVQLVESGGGLVQPGGSLRLSCAASGFTFRVYGMSWVRQAPGKGLEWVSSIRGSSSSTYYADSVKGRFTISRDNSKNTLYLQMNSLRAEDTAVYYCARKYRYWFDYWGQGTLVTVSS VL: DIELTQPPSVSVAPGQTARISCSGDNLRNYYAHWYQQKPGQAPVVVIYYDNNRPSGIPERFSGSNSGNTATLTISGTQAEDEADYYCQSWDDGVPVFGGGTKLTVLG

>  <property_measured>
kon

>  <unit_symbol>
M⁻¹ s⁻¹

>  <reported_result>
3.84e+06

$$$$
>  <binder>
2A8 LC_Y48F (Fab, V domains shown, also called 2A8-14) VH: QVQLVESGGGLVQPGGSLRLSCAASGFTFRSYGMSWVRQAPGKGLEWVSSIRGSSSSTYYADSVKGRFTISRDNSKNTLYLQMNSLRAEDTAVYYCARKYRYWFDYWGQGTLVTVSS VL: DIELTQPPSVSVAPGQTARISCSGDNLRNYYAHWYQQKPGQAPVVVIFYDNNRPSGIPERFSGSNSGNTATLTISGTQAEDEADYYCQSWDDGVPVFGGGTKLTVLG

>  <property_measured>
kon

>  <unit_symbol>
M⁻¹ s⁻¹

>  <reported_result>
2.64e+06

$$$$

Source listed as patent USRE47150.
